meta.source: ChEMBL document CHEMBL1137074

Target or system: Glucocorticoid receptor (Homo sapiens, UniProt P04150)
Method: Glucocorticoid induced transactivation of human tyrosine amino transferase in HepG2 cells
Format: functional, cell-based
Endpoint: log10 EC50 (log10 of the value in nM)
Values below are the log10 of the recorded EC50, with nM as the unit.

Below, each entry is followed by its recorded log10 EC50 result.
{"Smiles structure": "C[C@]12Cc3cnn(-c4ccc(F)cc4)c3C=C1CCC[C@@H]2[C@@H](O)Cc1ccc(F)cc1", "Reported measurement": 3.00}
{"Smiles structure": "C[C@]12Cc3cnn(-c4ccc(F)cc4)c3C=C1CCC[C@@H]2[C@@H](O)CCC1CC1", "Reported measurement": 2.52}
{"Smiles structure": "CC(C)(O)[C@H]1CCCC2=Cc3c(cnn3-c3ccc(F)cc3)C[C@@]21C", "Reported measurement": 1.92}
{"Smiles structure": "C[C@]12Cc3cnn(-c4ccc(F)cc4)c3C=C1CCC[C@@H]2[C@](C)(O)c1ccc(F)cc1", "Reported measurement": 1.76}
{"Smiles structure": "C[C@]12Cc3cnn(-c4ccc(F)cc4)c3C=C1CCC[C@@H]2[C@](C)(O)c1ccsc1", "Reported measurement": 1.55}
{"Smiles structure": "COc1cc([C@H](O)[C@H]2CCCC3=Cc4c(cnn4-c4ccc(F)cc4)C[C@@]32C)cc(F)c1F", "Reported measurement": 2.72}
{"Smiles structure": "C=CCC[C@H](O)[C@H]1CCCC2=Cc3c(cnn3-c3ccc(F)cc3)C[C@@]21C", "Reported measurement": 2.41}

Here is the next item to consider.
Form field: reported log10 EC50 of "C=CC[C@H](O)[C@H]1CCCC2=Cc3c(cnn3-c3ccc(F)cc3)C[C@@]21C"
2.82

* * *

Target or system: Glucocorticoid receptor (Homo sapiens, UniProt P04150)
Sequence (P04150 whole entry): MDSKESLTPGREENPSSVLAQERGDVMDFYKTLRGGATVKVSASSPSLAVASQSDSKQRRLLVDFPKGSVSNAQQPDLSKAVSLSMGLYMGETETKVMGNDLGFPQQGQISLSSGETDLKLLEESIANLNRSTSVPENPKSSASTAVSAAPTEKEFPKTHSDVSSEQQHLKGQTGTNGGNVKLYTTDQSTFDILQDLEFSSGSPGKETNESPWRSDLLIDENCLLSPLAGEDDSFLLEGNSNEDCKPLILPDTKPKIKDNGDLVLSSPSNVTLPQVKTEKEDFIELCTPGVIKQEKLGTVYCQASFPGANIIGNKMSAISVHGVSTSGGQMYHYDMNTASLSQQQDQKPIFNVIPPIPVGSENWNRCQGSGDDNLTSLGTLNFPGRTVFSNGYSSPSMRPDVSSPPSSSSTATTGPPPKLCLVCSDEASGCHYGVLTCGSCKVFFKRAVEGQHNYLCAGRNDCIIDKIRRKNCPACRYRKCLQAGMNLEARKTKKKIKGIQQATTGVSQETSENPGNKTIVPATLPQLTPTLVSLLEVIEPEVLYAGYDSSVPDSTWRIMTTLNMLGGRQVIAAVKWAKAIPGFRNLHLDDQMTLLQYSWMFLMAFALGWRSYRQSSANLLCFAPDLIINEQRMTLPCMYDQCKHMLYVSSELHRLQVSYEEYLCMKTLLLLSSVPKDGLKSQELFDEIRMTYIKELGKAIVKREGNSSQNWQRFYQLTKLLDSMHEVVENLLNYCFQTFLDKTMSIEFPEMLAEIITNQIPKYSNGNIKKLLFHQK
Method: Ability to induce human IL-6 assay in A549 lung carcinoma cell line.
Type: functional, cell-based
pEC50: −log10 of the molar value.
// condition not met strictly below 8 in pEC50; condition met otherwise

Could you tell me if the measured pEC50 of "C[C@]12Cc3cnn(-c4ccc(F)cc4)c3C=C1CCC[C@@H]2[C@](C)(O)c1ccsc1" reaches 8 or more?
condition met

// same read-out, input: "COc1cc([C@H](O)[C@H]2CCCC3=Cc4c(cnn4-c4ccc(F)cc4)C[C@@]32C)ccc1F"
condition not met

// same read-out, input: "C[C@]12Cc3cnn(-c4ccc(F)cc4)c3C=C1CCC[C@@H]2[C@@H](O)c1ccccc1F"
condition met

// same read-out, input: "CC(C)(O)[C@H]1CCCC2=Cc3c(cnn3-c3ccc(F)cc3)C[C@@]21C"
condition met
